B1: TPR t1 (parent)
chain: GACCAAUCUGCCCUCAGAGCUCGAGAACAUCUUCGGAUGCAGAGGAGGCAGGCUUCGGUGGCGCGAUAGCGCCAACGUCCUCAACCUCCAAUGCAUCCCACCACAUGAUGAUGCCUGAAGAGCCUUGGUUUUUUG

Variants of: B1
Experimental Details: polymerase ribozyme fitness, log enrichment relative to wild type (log ratio); higher = more active; in vitro selection for triplet polymerase activity
Property: polymerase ribozyme fitness (log ratio)

Examples with answers:
* GACCAAUGUGCCCUCAGAUCUCGAGAACAUCUUCGGAUGCAGAGGAGGCAGGCUUCGGUGGCGCGAUAGCGCCAACGUCCUCAACCUCCAAUGCAUCCCACCACAUGAUGAUGCCUGAAGAGCCAUGGUUUUUUG | -2.65
* GUCCAAUCUGCCCUCAGAGCUCGAGAACAUCUUCGGAUGCAGAGGAGGCAGGCUUCGGUGGCGCGAUAGCGCCAACGUCCUCAACCUCCAAUUCAUCCCACCACAUGAUGAUGCCUGAAGAGCCUUGGUUUUUUG | -2.62
* GACCAAUCUGCCCUCAGAGCUCGAGAACAUCUUCGGAUGCAGAGGAGACAGGCUUCGGUGGCUCGAUAGCGCCAACGUCCUCAACCUCCAAUGCAUCCCACCACAUGAUGAUGCCUGAAGAGCCUUGGUUUUUUG | -0.443
* GACCAAUCUGCCCUCAGAGCUCGAGAACAUCUUCGGAUGCAGAGGAGGGAGGCUUCGGUGGCGCGAUAGCGCCAACGUCCUCAACCUCCAAUGCAUCCCACCACAUGACGAUGCCUGAAGAGCCUUGGUUUUUUG | -4.72
* GACCAAUCUGCCUUCAGAGCUCGAGAACAUCUUCGGAUGCAGAGGAGGCAGGCUUCGGUGGCUCGAUAGCGCCAACGUCCUCAACCUCCUAUGCAUCCCACCACAUGAUGAUGCCUCAAGAGCCUUGGUUUUUUG | -5.21
* GACCAAUCUGCCCUCAGAGCUCGAGAACAUCUUCGGAUGCAGAGGAGACAGGCUUCGGUGGCACGAUAGCGCCAACGUCCUCAACCUCCAACGCAUCCCACCACAUGAUGAUGCCUGAAGAGCCUUGGUUUUUUG | -3.14
* GACGAAUCUGCCCUCAGAGCUCGAGAACAUCUUCGGAUGCAGAGAAGGCAGGCUUCGGUGGCGCGAUAGCGCCAACGUCCUCAACCUCCAAUGCAUCCCACCACAUGAUGAUGCCUGAAGAGCCUUGGUUUUUUG | -2.31
* GACCAAUCUGCCCUCAGAGCUCGAGAACAUGUUCGGAUGCAGAGGAGGCAGGCUUCGGUGGCGCGAUAGCGCCAACGUCCUCAACCUCCAAUGCAUCCCACCACAUGAUGAUGCCUGAAGAGCCUUGGUUUUUUG | -7.22

Next variant, please.
IN: I am curious: what polymerase ribozyme fitness (log ratio) value has been reported for `GACCAAUCUGCCCUCAGAGCUCGAGAACAUCUUCGGAUGCAGAGGAGGCAGGCUUCGGUGUCGCGAUAGCGCCAACGUCCUCAACCUCCAAUGCAUCCCACCACAUGAUGAUGCCUGAAGAGCCUUGGUGUUUUG` ?
OUT: -0.614
